# measured.target: Protein RecA (Mycobacterium tuberculosis, UniProt P9WHJ3)
# assay.summary: Fluorescence Cell-Free Homogeneous Dose Retest to Identify Inhibitors of RecA-Intein Splicing Activity. [Related pubchem assays (depositor defined):AID2097, AID2223, AID489010, AID492950]
# Format: functional
Calls of active or inactive are those of the source.
recorded.endpoint: EC50

Example entries begin here.
> print(dat)
                                   compound            result
1                    COc1ccccc1-c1cnnc(S)n1   111 µM (active)
2  Cc1onc(-c2c(Cl)cccc2Cl)c1C(=O)n1nnc2ccccc21  26.5 µM (active)
3  Cc1nn(Cc2ccccc2)c2c1C(c1ccc(Cl)cc1)C(C#N)=C(N)O2 (configuration not stated)  3.58 µM (active)
4  COC(=O)CC1(c2cccc3ccccc23)C(=O)c2ccccc2C1=O  4.46 µM (active)
5  O=C(Cc1ccccc1)c1c[nH]c(C(=O)C(Cl)(Cl)Cl)c1  4.99 µM (active)

Item: N#Cc1c(O)nc(SCC(=O)N2c3ccccc3Sc3ccccc32)nc1-c1ccccc1 | EC50: 9.18 µM (active)

Item: CC(C)c1n[nH]c2c1C(c1ccco1)C(C#N)=C(N)O2 (configuration not stated) | EC50: 3.05 µM (active)

* * *

# measured.target: UniProtKB Q9Y5X4
# Sequence (Q9Y5X4 whole entry): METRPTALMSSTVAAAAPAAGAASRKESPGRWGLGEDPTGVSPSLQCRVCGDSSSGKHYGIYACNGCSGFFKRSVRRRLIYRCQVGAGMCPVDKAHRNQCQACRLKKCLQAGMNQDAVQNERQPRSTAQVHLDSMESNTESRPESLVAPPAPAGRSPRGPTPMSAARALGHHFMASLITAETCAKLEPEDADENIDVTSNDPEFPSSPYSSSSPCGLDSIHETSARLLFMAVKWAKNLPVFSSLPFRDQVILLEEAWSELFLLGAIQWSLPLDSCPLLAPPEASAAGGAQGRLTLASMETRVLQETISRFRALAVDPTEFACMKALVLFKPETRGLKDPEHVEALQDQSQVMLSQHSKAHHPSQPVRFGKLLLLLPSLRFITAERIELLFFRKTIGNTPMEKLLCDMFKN
# Format: functional, cell-based
Calls of active or inactive are those of the source.
# valid calls are Yes (active), No (inactive); nothing else

> print(dat)
                               input.smiles  class.label
1    O=NN(CC(=O)NNc1ccccc1)CC(=O)NNc1ccccc1           No
2  Cc1cc(C)cc(NC(=O)CCc2nc3sc4c(c3c(=O)[nH]2)CCCC4)c1          Yes
3  O=C(Nc1ccc(N2CCN(C(=O)c3ccccc3)CC2)cc1)c1ccc2c(c1)OCO2           No

Lab note: next compound to report on.
Recorded test call requested for CCNc1nc2c(c(=O)n(C)c(=O)n2C)n1Cc1ccc(Cl)cc1
No

* * *

# assay.summary: Luminescence Cell-Based Dose Retest to Confirm Inhibitors of Cancer Stem Cells. [Related pubchem assays (depositor defined):AID2717, AID2721]
# Assay type: functional
# test.parameters: Homo sapiens
Activity calls are given as the source filed them.
Entries annotated with measured AC50

Example entries begin here.
> print(dat)
                                   molecule              result
1  CC(=O)Nc1ccc(SCC(=O)c2cc(C)n(Cc3cccs3)c2C)cc1    1.77 µM (active)
2  Cc1ccc2nc(-c3cccc(NS(C)(=O)=O)c3)cc(-c3ccccc3)c2c1    4.13 µM (active)
3  CC1CCC2C(=O)N(c3ccc(NC4CCCCC4)c([N+](=O)[O-])c3)C(=O)C2C1 (stereo unspecified)  < 0.16 µM (active)
4  O=C(N/N=C/c1cn(-c2cccs2)nc1-c1ccccc1)c1ccccc1Br    3.75 µM (active)
5  CCNS(=O)(=O)c1ccc(NC(=O)Nc2cccc(C(F)(F)F)c2)cc1    7.58 µM (active)

Item: CC(=O)Oc1ccc(-c2csc(Nc3ccc(Cl)cn3)n2)cc1 | AC50: 5.14 µM (active)

* * *

# measured.target: Cytochrome P450 2C19 (Homo sapiens)
# Sequence (P33261 whole entry): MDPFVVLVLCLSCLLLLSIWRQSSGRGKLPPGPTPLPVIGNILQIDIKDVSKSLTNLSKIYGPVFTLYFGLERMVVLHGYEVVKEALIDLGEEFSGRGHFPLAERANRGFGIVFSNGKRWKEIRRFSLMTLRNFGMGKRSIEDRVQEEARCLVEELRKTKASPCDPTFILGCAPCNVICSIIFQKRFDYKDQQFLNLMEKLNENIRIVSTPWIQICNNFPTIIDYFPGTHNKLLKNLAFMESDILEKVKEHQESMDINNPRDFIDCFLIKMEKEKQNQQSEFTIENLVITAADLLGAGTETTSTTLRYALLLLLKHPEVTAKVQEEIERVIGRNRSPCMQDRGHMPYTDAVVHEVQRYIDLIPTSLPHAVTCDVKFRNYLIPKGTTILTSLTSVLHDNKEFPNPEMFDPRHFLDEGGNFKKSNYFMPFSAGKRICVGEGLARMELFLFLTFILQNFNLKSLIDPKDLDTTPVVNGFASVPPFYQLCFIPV
# assay.summary: Cytochrome panel assay with activity outcomes. Panel member name: p450-cyp2c19 Compounds with AC50 equal or less than 10 uM are considered active
# Type: functional
# test.parameters: read-out: AC50
Entries annotated with measured AC50

Example entries begin here.
> print(dat)
                               input.smiles  recorded.endpoint                  result
1        COC(=O)N1CCC2(CC1)CCN(c1ccccn1)CC2               AC50    10 µM (inconclusive)
2  CCn1c(COc2ccccc2)nnc1SCC(=O)c1cccc([N+](=O)[O-])c1               AC50  39.8 µM (inconclusive)
3  CCc1c2c(nc3c(C(C)C)cccc13)-c1cccc(=O)n1C2               AC50    20 µM (inconclusive)
4        N=C(NC(=O)c1ccccc1F)Nc1nc2ccccc2o1               AC50  22.4 µM (inconclusive)

Proceeding to the next compound to report its AC50.
Item: Cc1ccc(N=Nc2c(=O)[nH]n3c(C)cc(C)nc23)cc1 | AC50: 39.8 µM (inconclusive)

* * *

# measured.target: Procathepsin L (Homo sapiens, UniProt P07711)
# Sequence (P07711 whole entry): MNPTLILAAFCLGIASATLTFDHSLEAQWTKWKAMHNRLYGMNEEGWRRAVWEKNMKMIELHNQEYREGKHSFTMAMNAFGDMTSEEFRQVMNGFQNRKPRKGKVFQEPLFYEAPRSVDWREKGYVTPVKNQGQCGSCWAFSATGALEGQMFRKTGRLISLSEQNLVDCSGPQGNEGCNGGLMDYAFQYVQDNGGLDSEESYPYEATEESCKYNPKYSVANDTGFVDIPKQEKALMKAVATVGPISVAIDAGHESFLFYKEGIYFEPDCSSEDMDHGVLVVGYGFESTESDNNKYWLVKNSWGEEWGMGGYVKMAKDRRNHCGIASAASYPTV
# assay.summary: cathepsin L inhibitors, dose response, counter-screen for M1/M17 aminopeptidase inhibitor project, biochemical, QFRET, 1536-well (AID 2214)
Entries annotated with measured IC50

Example entries begin here.
> print(dat)
                               input.smiles                           measured.target                  result
1  Cc1ccc(-n2c(C)cc(C(=O)COC(=O)c3ccc[nH]c3=O)c2C)cc1  Procathepsin L (Homo sapiens, UniProt P07711)  > 59.6 µM (not active)
2   O=C(Nn1c(Cc2cccs2)nc2ccccc2c1=O)c1cccs1  Procathepsin L (Homo sapiens, UniProt P07711)  > 59.6 µM (not active)

Item: CCc1cc2ccccc2nc1SCC(=O)Nc1cc(OC)c(OC)cc1C(=O)O | IC50: > 59.6 µM (not active)

Item: O=C1Nc2ccccc2/C1=C1/SC(=S)N(NC(=O)c2ccccc2)C1=O | IC50: 38.3 µM (not active)

* * *

Entries annotated with measured IC50
# measured.target: Sentrin-specific protease 7 (Homo sapiens, UniProt Q9BQF6);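 also: Luminescence-based dose-response confirmation of ultra-high-throughput screening hits, measuring inhibition of SENP7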
# Sequence (Q9BQF6 whole entry): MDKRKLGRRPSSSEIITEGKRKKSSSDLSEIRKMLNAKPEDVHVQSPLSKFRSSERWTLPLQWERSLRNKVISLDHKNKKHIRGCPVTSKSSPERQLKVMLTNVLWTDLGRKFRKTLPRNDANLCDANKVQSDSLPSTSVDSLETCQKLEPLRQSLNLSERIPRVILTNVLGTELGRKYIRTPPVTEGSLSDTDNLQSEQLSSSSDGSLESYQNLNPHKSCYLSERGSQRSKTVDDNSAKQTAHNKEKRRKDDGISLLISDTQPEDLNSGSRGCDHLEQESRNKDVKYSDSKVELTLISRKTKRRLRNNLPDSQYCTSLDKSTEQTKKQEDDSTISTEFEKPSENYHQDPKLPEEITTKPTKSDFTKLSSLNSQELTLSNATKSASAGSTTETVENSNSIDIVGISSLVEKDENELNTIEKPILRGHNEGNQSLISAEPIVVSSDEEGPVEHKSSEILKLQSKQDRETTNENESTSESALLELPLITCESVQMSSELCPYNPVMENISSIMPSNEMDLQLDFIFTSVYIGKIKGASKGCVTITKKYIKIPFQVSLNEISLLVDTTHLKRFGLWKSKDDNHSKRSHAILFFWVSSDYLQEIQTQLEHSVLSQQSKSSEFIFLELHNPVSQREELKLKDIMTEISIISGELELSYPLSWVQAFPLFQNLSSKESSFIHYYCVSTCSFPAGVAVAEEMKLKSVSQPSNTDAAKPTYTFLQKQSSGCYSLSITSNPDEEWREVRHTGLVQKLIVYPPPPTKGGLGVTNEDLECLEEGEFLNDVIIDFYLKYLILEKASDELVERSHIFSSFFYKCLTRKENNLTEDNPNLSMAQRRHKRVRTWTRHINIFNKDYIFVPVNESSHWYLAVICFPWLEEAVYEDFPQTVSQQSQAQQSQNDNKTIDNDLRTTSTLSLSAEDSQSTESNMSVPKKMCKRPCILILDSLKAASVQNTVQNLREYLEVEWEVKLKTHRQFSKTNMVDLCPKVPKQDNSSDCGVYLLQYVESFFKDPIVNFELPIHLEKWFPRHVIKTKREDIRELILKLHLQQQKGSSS
# Assay type: functional
The source made the active and inactive calls.

> print(dat)
                                   compound  recorded.endpoint            result
1  O=C(Nc1cccc(Cl)c1)c1ccc(OC(=S)N2CCOCC2)cc1               IC50  2.85 µM (active)

Item: CC(C)(C)c1ccc(C(=O)NCCOc2ccccc2)cc1 | IC50: 5.62 µM (active)

Item: COc1cc(C(=O)c2nccc3cc(OC)c(OC)cc23)c([N+](=O)[O-])cc1OC | IC50: 2.93 µM (active)

Item: Cc1nc(C)c(-c2csc(Nc3ncccc3C)n2)s1 | IC50: 3.96 µM (active)

Item: CC1Cc2cc(/C=C3/SC(=S)NC3=O)ccc2O1 (stereo unspecified) | IC50: 9.86 µM (active)

Item: c1ccc2c(Nc3nnc(-c4ccncc4)s3)cccc2c1 | IC50: 5.51 µM (active)
